biological target: Mcl-1 (Homo sapiens (Human), UniProt Q07820)
Sequence (Q07820 whole entry): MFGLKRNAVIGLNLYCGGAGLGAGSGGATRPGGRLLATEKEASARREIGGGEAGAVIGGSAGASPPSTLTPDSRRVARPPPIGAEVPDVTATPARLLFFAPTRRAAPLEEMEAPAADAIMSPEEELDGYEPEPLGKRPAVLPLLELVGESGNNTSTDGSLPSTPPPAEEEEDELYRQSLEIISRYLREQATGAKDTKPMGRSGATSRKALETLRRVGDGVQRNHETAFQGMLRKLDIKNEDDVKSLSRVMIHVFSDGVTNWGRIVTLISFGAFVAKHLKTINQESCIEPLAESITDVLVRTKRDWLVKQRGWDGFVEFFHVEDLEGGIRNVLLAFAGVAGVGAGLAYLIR
Kindly note that classification relies on Ki with these boundaries: LOW (below 50 pM), MID (50 pM to below 200 pM), HIGH (200 pM or more)

compound	assignedCategory
C[C@@H]1[C@@H](C)C/C=C(\F)C2(COC(C)(C)OC2)N2CCC[C@H]2CN2C[C@@]3(CCCc4cc(Cl)ccc43)COc3ccc(cc32)C(=O)NS1(=O)=O [Compound 14]	HIGH
COC[C@]1([C@@H]2COC(C)(C)O2)/C(F)=C/C[C@H](C)[C@@H](C)S(=O)(=O)NC(=O)c2ccc3c(c2)N(C[C@@H]2CCN21)C[C@@]1(CCCc2cc(Cl)ccc21)CO3 [Compound 7]	HIGH
C[C@@H]1[C@@H](C)C/C=C(\F)[C@H]([C@@H](O)COC2CCOCC2)N2CCC[C@H]2CN2C[C@@]3(CCCc4cc(Cl)ccc43)COc3ccc(cc32)C(=O)NS1(=O)=O [Compound 20]	MID
C[C@@H]1[C@@H](C)C/C=C(\F)[C@H]([C@@H](O)CN(C)C)N2CC[C@H]2CN2C[C@@]3(CCCc4cc(Cl)ccc43)COc3ccc(cc32)C(=O)NS1(=O)=O [Compound 31]	LOW
CO[C@H]1COC(C)(C)OC[C@@]12/C(F)=C/C[C@H](C)[C@@H](C)S(=O)(=O)NC(=O)c1ccc3c(c1)N(C[C@@H]1CCCN12)C[C@@]1(CCCc2cc(Cl)ccc21)CO3 [Compound 12]	HIGH

State the class of the compound shown: C[C@@H]1[C@@H](C)C/C=C(\F)C2(COC(C)(C)OC2)N2CC[C@H]2CN2C[C@@]3(CCCc4cc(Cl)ccc43)COc3ccc(cc32)C(=O)NS1(=O)=O [Compound 13]
HIGH

State the class of the compound shown: C[C@@H]1[C@@H](C)C/C=C(\F)[C@@]2(COC(C)(C)OC[C@@H]2O)N2CCC[C@H]2CN2C[C@@]3(CCCc4cc(Cl)ccc43)COc3ccc(cc32)C(=O)NS1(=O)=O [Compound 11]
MID

State the class of the compound shown: COCCN(CCOC)C[C@H](O)[C@H]1/C(F)=C/C[C@H](C)[C@@H](C)S(=O)(=O)NC(=O)c2ccc3c(c2)N(C[C@@H]2CCN21)C[C@@]1(CCCc2cc(Cl)ccc21)CO3 [Compound 23]
LOW

State the class of the compound shown: C[C@H](O)[C@H]1/C(F)=C/C[C@H](C)[C@@H](C)S(=O)(=O)NC(=O)c2ccc3c(c2)N(C[C@@H]2CCCN21)C[C@@]1(CCCc2cc(Cl)ccc21)CO3 [Compound 4]
HIGH
